Tested on: Escherichia coli TOP10;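 also: peptides expressed intracellularly from a pBAD plasmid library in pooled LB shake-flask culture, induced with 0.3% L-arabinose, DNA abundance read by NGS, three biological replicates, DESeq2 with apeglm shrinkage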
Assay: shrunken log2 fold change of peptide-encoding DNA abundance (4.5 h post-induction vs induction); higher = less antimicrobial activity (less host growth inhibition)
Settings: time post-induction: 4.5 h; library: site-saturation at positions 5, 18, 19, 20
Would you please tag the item True when its shrunken log2 fold change is 0.1 or above, and False when it is below?

RRIRHRPPRLPRPRPRPVQGPRP: True

## Task Say whether `RRIRWRPPRLPRPRPRPHWDPRP` shows shrunken log2 fold change of 0.1 or more.
## Result False

## Task Identify whether the reported shrunken log2 fold change of the following sequence is 0.1 or greater: `RRIRHRPPRLPRPRPRPRFMPRP`
## Result False
